Test system: Trypanosoma cruzi
Assay: Trypanosoma cruzi phosphomannomutase and mannose-1-phosphate guanylyltransferase assay
Format: functional
Design: scale not given: direction of the effect not stated beside the values
Settings: 10 µM
Measured attribute: Percent Effect

>>> result("COc1ccc(NC(=O)C2CCOC2)c(N2CCN(C(C)=O)CC2)n1 (configuration not stated)")
"-0.391%"
>>> result("OCC1CCCN1c1cc(N2CCc3ccccc3C2)ncn1 (configuration not stated)")
"8.13%"
>>> result("Cn1cc(CN2CC3(CCN(C(=O)c4cscn4)C3)C2)cn1")
"3.77%"
>>> result("Cn1nnc2c1C(COCC1CC1)CN(C(=O)Cc1ccsc1)C2 (configuration not stated)")
"4.63%"
>>> result("CCn1c(Nc2ccccc2OC)nc2c(C)nn(C)c2c1=O")
"-6.88%"
>>> result("O=C(c1cn(-c2ccccc2Cl)nn1)N1CCCSCC1")
"5.57%"
>>> result("O=C(c1cc(F)ccc1F)C1CCN(C(=O)c2cccnc2O)CC1")
"2.06%"

###

Tested on: Trypanosoma cruzi
Assay: Trypanosoma cruzi phosphomannomutase and mannose-1-phosphate guanylyltransferase assay
Format: functional
Set-up: scale not given: direction of the effect not stated beside the values
Conditions: 10 µM
# maps each entry to its Percent Effect
Measured attribute: Percent Effect (%)

>>> numeric_value("CC(C)COC(C)C(=O)NCc1cc(F)cc(F)c1 (centres undefined)")
1.47
>>> numeric_value("O=C(c1ccc(F)c(F)c1)N1CCCSCC1CN1CCCC1 (centres undefined)")
2.86
>>> numeric_value("Cc1nc(C2CCCN2CC(=O)N2CCCc3ccccc32)no1 (centres undefined)")
6.77
>>> numeric_value("Cc1cc(C[S+]([O-])CC(=O)NCc2cccs2)no1 (centres undefined)")
1.87
>>> numeric_value("Cc1ccc(N2CCCC(NCC(=O)Nc3cc(C)no3)C2)nn1 (centres undefined)")
-3.59
>>> numeric_value("CN1CCN(C(=O)[C@@H]2CCO[C@@H]3CCN(c4ncccn4)C[C@@H]32)CC1")
2.7
>>> numeric_value("COCCN1CCN(CCS(=O)(=O)C(F)(F)F)CC1C (centres undefined)")
-3.62
>>> numeric_value("Cc1cccc(N2CC[C@@H]3CN(C(=O)c4ccco4)CCO[C@@H]3C2)n1")
-3.15
>>> numeric_value("Cc1ccsc1[C@@H]1CCN(C(=O)CCC(=O)N2CCCCCC2)C[C@H]1O")
1.46
>>> numeric_value("CCc1nc(CN2CCCN(c3nccs3)CC2)no1")
-3.93
>>> numeric_value("O=C(CCc1ccccc1)N1CCC(N2CCNC2=O)CC1")
-4.6
>>> numeric_value("CS(=O)(=O)c1ccc(CNC(=O)N2CCC(c3ccccc3)CC2)cc1")
-5.76
>>> numeric_value("COc1cc(/C=C/c2ncc(C(=O)O)s2)cc(Cl)c1O")
0.923
>>> numeric_value("Cc1ccc(OCCC(=O)NC2CCc3nc(C)cn3C2)cc1 (centres undefined)")
0.0974

###

# maps each entry to its Percent Effect
System: Trypanosoma cruzi
Test: Trypanosoma cruzi phosphomannomutase and mannose-1-phosphate guanylyltransferase assay
Assay type: functional
Set-up: scale not given: direction of the effect not stated beside the values
Conditions: 10 µM
Measured attribute: Percent Effect (%)

>>> numeric_value("CC(C)n1cc(CN2CCCN(C(=O)c3cc(Cl)c[nH]3)CC2)cn1")
1.23
>>> numeric_value("OCC1CCCN1c1cc(NCCc2c[nH]c3ccccc23)ncn1 (configuration not stated)")
-2.15
>>> numeric_value("Cc1cc(C[S+]([O-])CC(=O)NCC(C)C)no1 (configuration not stated)")
-2.06
>>> numeric_value("NC(=O)C1CCN(C(=O)Cn2nc(-c3ccccc3)oc2=O)C1 (configuration not stated)")
2.46
>>> numeric_value("Cc1occc1C(=O)N1CCO[C@H]2[C@@H](Oc3ccccn3)CC[C@@H]21")
0.984
>>> numeric_value("O=C(c1csc(Br)c1)N1CCCC(n2ccnc2)C1 (configuration not stated)")
2.56
>>> numeric_value("CCN(CC)Cc1cn2c(n1)CN(C(=O)c1cnccn1)CC2")
-3.62
>>> numeric_value("O=C(NCC1CCOCC1)[C@@H]1C[C@@H]2CCN(Cc3ccco3)C[C@H]2O1")
-5.02
>>> numeric_value("Cc1nc(C)n(CC2CCCN2CCc2cccs2)n1 (configuration not stated)")
7.89
>>> numeric_value("COCCN1C[C@@H]2CN(Cc3ccsc3)CCC[C@]2(C(=O)O)C1")
-5.23
>>> numeric_value("Cc1ccc(C2CSCCN2C(=O)c2ccc(C(N)=O)cc2)o1 (configuration not stated)")
1.47
>>> numeric_value("CCCN1CCC(NC(=O)c2ccc(F)cc2I)CC1")
2.23

Data provenance is ChEMBL document CHEMBL3988442.
